Recorded % Inhibition of fungal growth at 50 μM, one value per entry.
# Tested on: Fusarium graminearum
# procedure details: microbe, parasite or virus in culture
# Format: cell-based
# condition notes: 50 μM
Express the result in % but write the number alone.

Input line: Which % Inhibition of fungal growth at 50 μM is listed for CC(CNC(=O)c1c(C(F)F)nn(C)c1F)c1cc(Cl)cc(Cl)c1 (stereo not shown) [Example 111] ?
Output line: 96

Input line: Which % Inhibition of fungal growth at 50 μM is listed for CCOC(c1ccc(Cl)cc1Cl)C(C)NC(=O)c1c(C(F)F)nn(C)c1F (mixture of isomers) [Example 83] ?
Output line: 100

Input line: Which % Inhibition of fungal growth at 50 μM is listed for Cn1nc(C(F)F)c(C(=O)N(C[Si](C)(C)c2ccc3ccccc3c2)C2CC2)c1F [Example 245] ?
Output line: 100

Input line: Which % Inhibition of fungal growth at 50 μM is listed for Cn1nc(C(F)F)c(C(=O)NCC(c2cccs2)C(F)(F)F)c1Cl (stereo not shown) [Example 162] ?
Output line: 80

###

# Test system: Alternaria solani
# procedure details: In vivo preventive test on Alternaria solani (tomato)
# condition notes: 500 ppm of active ingredient, evaluated 7 days after inoculation
Recorded Efficacy, one value per entry.
Express the result in % but write the number alone.

- compound: "CC(Cc1ccccc1Cl)NC(=S)c1c(C(F)F)nn(C)c1Cl (stereo not drawn)"
  Efficacy (%): 89
- compound: "Cn1nc(C(F)F)c(C(=O)NCCc2ccccc2Cl)c1Cl"
  Efficacy (%): 100

Input line: Which Efficacy is listed for Cn1nc(C(F)F)c(C(=O)NCCc2ncc(C(F)(F)F)cc2Cl)c1Cl ?
Output line: 94

Input line: Which Efficacy is listed for Cn1nc(C(F)F)c(C(=O)NC(C)(C)C(=O)c2ccc3ccccc3c2)c1F ?
Output line: 95

Input line: Which Efficacy is listed for Cn1nc(C(F)F)c(C(=O)N(C[Si](C)(C)c2ccccc2Cl)C2CC2)c1F ?
Output line: 94

Input line: Which Efficacy is listed for COC(CNC(=O)c1cn(C)nc1C(F)F)c1ccc(Cl)cc1Cl (stereo not drawn) [1.02 from WO-2008/148570, reference compound] ?
Output line: 80

Input line: Which Efficacy is listed for Cn1nc(C(F)F)c(C(=O)NC(C)(C)C(=O)c2ncc(C(F)(F)F)cc2Cl)c1Cl ?
Output line: 95

Input line: Which Efficacy is listed for Cn1nc(C(F)F)c(C(=O)NC2CCCCC2c2ccccc2)c1Cl (stereo not drawn) ?
Output line: 78

Input line: Which Efficacy is listed for COC(c1ccc(Cl)cc1Cl)C1(NC(=O)c2c(C(F)F)nn(C)c2F)CC1 (stereo not drawn) ?
Output line: 100

Input line: Which Efficacy is listed for Cn1nc(C(F)F)c(C(=O)NC[Si](C)(C)c2ccccc2Cl)c1F ?
Output line: 95

Input line: Which Efficacy is listed for Cn1nc(C(F)F)c(C(=O)N(C2CC2)C2CCCC2c2ccccc2Cl)c1F (stereo not drawn) ?
Output line: 100

Input line: Which Efficacy is listed for Cn1nc(C(F)F)c(C(=O)NC[Si](C)(C)c2ccccc2)c1F ?
Output line: 100

Input line: Which Efficacy is listed for CCN(CCc1ccc(Cl)cc1)C(=O)c1c(C(F)F)nn(C)c1F ?
Output line: 100

Input line: Which Efficacy is listed for CC(c1ccccc1Cl)C(C)N(C(=O)c1c(C(F)F)nn(C)c1F)C1CC1 (stereo not drawn) ?
Output line: 100

Input line: Which Efficacy is listed for Cn1nc(C(F)F)c(C(=O)N(C[Si](C)(C)c2ccc3ccccc3c2)C2CC2)c1F ?
Output line: 100

Input line: Which Efficacy is listed for Cn1nc(C(F)F)c(C(=O)NCCc2ncc(C(F)(F)F)cc2Cl)c1F ?
Output line: 100

Input line: Which Efficacy is listed for CC(CNC(=O)c1c(C(F)F)nn(C)c1F)c1c(F)cccc1F (stereo not drawn) ?
Output line: 100

Input line: Which Efficacy is listed for COC(CNC(=S)c1c(C(F)F)nn(C)c1F)c1cc(Cl)cc(Cl)c1 (stereo not drawn) ?
Output line: 80
